Test system: UACC-62 melanoma
ASSAY PROTOCOL: NCI tumour cell line growth inhibition, 48 h
Measured TGI by item

Sample answers from the record:
I'd like to know its TGI. The compound in question is CCN1C/C(=C\c2ccc(Cl)cc2)C2=NN(c3ccccc3)C(c3ccc(Cl)cc3)C2C1 (stereo not given)
> 100 µM

I'd like to know its TGI. The compound in question is S=C1CC(c2ccc(Cl)cc2)Sc2ccccc2N1 (stereo not given)
> 100 µM

I'd like to know its TGI. The compound in question is CC(=O)C(=C(I)I)c1ccccc1
51.4 µM

Next:
I'd like to know its TGI. The compound in question is CCOC(=O)/C(C1=CC(=O)C(=O)c2ccccc21)=C(/C)NCc1ccccc1
3.91 µM

I'd like to know its TGI. The compound in question is COC1C(=O)CCC2(CO2)C1(O)C1(C)OC1CCC(C)C (stereo not given)
> 100 µM

I'd like to know its TGI. The compound in question is NC(=O)c1ccccc1NC(=O)C(=O)C(c1cnc2ccc([N+](=O)[O-])cc2n1)[N+](=O)[O-] (stereo not given)
> 100 µM

I'd like to know its TGI. The compound in question is CCOC(=O)/C=C/c1ccc(C(=O)OCC)[nH]1
> 100 µM

I'd like to know its TGI. The compound in question is O=C1CSC2(CCN(CCCN3c4ccccc4Sc4ccc(Cl)cc43)CC2)N1
23.7 µM

I'd like to know its TGI. The compound in question is CSc1n[n+](C)cc(N)c1N
> 100 µM

I'd like to know its TGI. The compound in question is CN(C)c1ccc(C(c2ccc(N(C)C)cc2)c2ccc([N+](=O)[O-])cc2)cc1
> 100 µM
